# experiment: protein stability index of a GFP-peptide fusion (GPS, HEK-293T) (PSI 1-6); higher = more stable;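 further: 24-mer peptide tiles fused after GFP, lentivirally expressed, FACS-sorted into six equal bins by GFP/DsRed ratio, decoded by Illumina sequencing, PSI is the read-weighted mean bin number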
# experimentalSetup: treatment: DMSO; c terminus: a fixed tail appended
reportedProperty: protein stability index
Number, no unit, nothing else.

{"columns": ["seq", "resultValue"],
 "data": [
  ["PHFLRVPCWKITLFVIVPVLGPLV [MOG]", 2.9],
  ["GTWVTFGGQITDEMAEQLMTLAYD [KCNAB2]", 2.17],
  ["CRGNQHDVPVIPLDVVDNQTEKLD [CASP6]", 5.05],
  ["NIQETHRLYRLKLEELTKLQNNCT [TMEM120A]", 2.92],
  ["EERQAAQNECQVLKLLNHPNVIEY [NEK8]", 4.01]
]}

Tell me the measured protein stability index of LSQALNGLSDRAKEAKEFLVQLRN [TRIM9] , please.
3.29

* * *

# experiment: protein stability index of a GFP-peptide fusion (GPS, HEK-293T) (PSI 1-6); higher = more stable
# experimentalSetup: treatment: MLN4924 1 uM, 8 h; c terminus: native
reportedProperty: protein stability index

{"columns": ["seq", "reportedProperty", "resultValue"],
 "data": [
  ["SNWYITFQSDTDAQQAFILKRRS [LARP4]", "protein stability index", 2.21],
  ["LPRGATAAVLAPDSSNASSEPSS [SEPHS2]", "protein stability index", 5.53],
  ["EDPSFWDCFCFTEEIPIRNGTKS [AASDHPPT]", "protein stability index", 4.22],
  ["TSPVYRGSSSGPSSPARVSTTPR [MTUS2]", "protein stability index", 4.48],
  ["TSSASVTTTSNASGRRTSDVRRP [KRT13]", "protein stability index", 3.58]
]}

Tell me the measured protein stability index of VGSGYRMSLVKRRFATGMYLVSC [FCHO1] , please.
3.03

Tell me the measured protein stability index of WLFGATAVALGGVALSVVIAARN [FKBP8] , please.
2.59

* * *

# experiment: protein stability index of a GFP-peptide fusion (GPS, HEK-293T) (PSI 1-6); higher = more stable
# experimentalSetup: treatment: DMSO; c terminus: native
protein stability index of 3 or higher: satisfied. Under 3: not satisfied.

Answered cases to consult:
{"columns": ["seq", "answerLabel"],
 "data": [
  ["WLFGATAVALGGVALSVVIAARN [FKBP8]", "not satisfied"],
  ["VGSGYRMSLVKRRFATGMYLVSC [FCHO1]", "not satisfied"],
  ["ERKQALYEYARRRFTERRAQEAD [AUP1]", "satisfied"]
]}

In plain terms: is recorded protein stability index at least 3 for GKKQVPCFASMLTKKLHFFPKSN [CASP6] ?
not satisfied

In plain terms: is recorded protein stability index at least 3 for LPFKPFAIILPILLNIRVATKYV [MIA2] ?
not satisfied

In plain terms: is recorded protein stability index at least 3 for EDPSFWDCFCFTEEIPIRNGTKS [AASDHPPT] ?
satisfied

In plain terms: is recorded protein stability index at least 3 for TLSPHQYHSVHGVGMVPEWSDNS [TBX5] ?
satisfied

* * *

# experiment: protein stability index of a GFP-peptide fusion (GPS, HEK-293T) (PSI 1-6); higher = more stable
# experimentalSetup: treatment: MLN4924 1 uM, 8 h; c terminus: a fixed tail appended
reportedProperty: protein stability index
Number, no unit, nothing else.

Observe how each entry below is paired with its result.
{"columns": ["seq", "reportedProperty", "resultValue"],
 "data": [
  ["LEEDLYELFKKDPGFDRGQFHKQI [PI4K2A]", "protein stability index", 3.56],
  ["SKTNLIVNYLPQNMTQDEFKSLFG [ELAVL3]", "protein stability index", 2.79]
]}

Tell me the measured protein stability index of DMVEFLLEQCSASIEVGGSVNFDG [FEM1C] , please.
2.4

Tell me the measured protein stability index of LTCALMLLNTDLHGHNIGKKMSCQ [PSD2] , please.
2.41

Tell me the measured protein stability index of ALHSLTQAGDYSMRVDLRAGDEAV [TNXB] , please.
3.6

Tell me the measured protein stability index of VLRTWRTNLPKGACALLLTSVDHD [DLC1] , please.
2.44
